# protocol: CEETOX_H295R_OHPREG_noMTC: CeeTox H295R High-throughput Steroidogenesis Assay for OH-Pregnenolone (OHPREG), maximum tolerated concentration (MTC) filtered results only (AID 2283912)
# test-conditions: actives raise or lower the signal
Calls of active or inactive are those of the source. How the source made its calls: active means hit-call score of the fitted dose curve at least 0.9, where 1 is the maximum; inactive means score below 0.9.
In this exercise, the only acceptable responses are active, inactive

Record excerpt, results attached:
>  <compound>
COC(=O)c1ccc(C(=O)OC)cc1

>  <label-value>
inactive

$$$$
>  <compound>
COC(=O)c1cccc(C(=O)OC)c1

>  <label-value>
inactive

$$$$

Request: Give the logged outcome of this assay for the following compound: CC(=O)OC/C=C(C)/C=C/C=C(C)/C=C/C1=C(C)CCCC1(C)C
Response: inactive

Request: Please indicate how the test categorized COC(=O)C(C)Oc1ccc(Oc2ncc(C(F)(F)F)cc2Cl)cc1 (centres undefined) .
Response: active

* * *

# protocol: BSK_hDFCGF_Proliferation: Cell Proliferation Assessment in the BioMAP Diversity Plus: hDFCGF Assay (AID 2283059);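 further: curves fitted for both rise and fall of signal versus DMSO baseline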
# test-conditions: primary human foreskin fibroblasts
Calls of active or inactive are those of the source. The calls were made as follows: active = hit-call score of the fitted dose curve at least 0.9, where 1 is the maximum; inactive = score below 0.9.
Write down one outcome, taken from Y for active, N for inactive

Example results:
>  <structure-smiles-string>
c1ccc(OCCOc2ccccc2)cc1

>  <label-value>
N

$$$$
>  <structure-smiles-string>
CCCCN(CCO)CCO

>  <label-value>
N

$$$$
>  <structure-smiles-string>
C[C@]12CC[C@@H]3c4ccc(O)cc4CC[C@H]3[C@@H]1CC[C@@H]2O

>  <label-value>
Y

$$$$
>  <structure-smiles-string>
CCC(=O)OCC=Cc1ccccc1

>  <label-value>
N

$$$$
>  <structure-smiles-string>
CC(C)(CO)CO

>  <label-value>
N

$$$$

Request: Entry Nc1ccc(N)c([N+](=O)[O-])c1 : call = ?
Response: Y

Request: Called result for C#C[C@]1(O)CC[C@H]2[C@@H]3CCc4cc(O)ccc4[C@H]3CC[C@@]21C
Response: Y

* * *

# protocol: CCTE_Shafer_MEA_acute_firing_rate_mean: CCTE's Neural Acute Assay for Mean Firing Rate, Shafer Lab (AID 2284009);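 further: analyzed for loss of signal so actives lower firing rate relative to DMSO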
Activity calls are given as the source filed them. Rule for the calls: active = hit-call score of the fitted dose curve at least 0.9, where 1 is the maximum; inactive = score below 0.9.
Please state which outcome applies, choosing from T (active), F (inactive)

Use these answered entries as a reference point.
>  <structure-smiles-string>
CCCCN(CCO)CCO

>  <label-value>
F

$$$$
>  <structure-smiles-string>
O=C(c1ccc(OCCN2CCCCC2)cc1)c1c(-c2ccc(O)cc2)sc2cc(O)ccc12

>  <label-value>
T

$$$$
>  <structure-smiles-string>
CCCO[Si](OCCC)(OCCC)OCCC

>  <label-value>
F

$$$$
>  <structure-smiles-string>
CC(C)CCCC(C)(C)O

>  <label-value>
F

$$$$
>  <structure-smiles-string>
CCn1cc(C(=O)O)c(=O)c2ccc(C)nc21

>  <label-value>
T

$$$$

Request: Outcome logged for CC(=O)c1ccc(C)cc1 in this assay:
Response: T

Request: Hi team, can someone confirm the assay call for c1ccc(OCCOc2ccccc2)cc1 ?
Response: F

Request: Status in this test for CCCCOCCOCCO ?
Response: F

Request: Name the outcome recorded for N[C@@H](CCC(=O)O)C(=O)O in the assay.
Response: F

* * *

# protocol: ATG_NFI_CIS: Attagene CIS-FACTORIAL HepG2 Assay for human Nuclear Factor I (NFI) (AID 2282989)
# test-conditions: HepG2 cis-regulatory reporter, NFI response element transcription; actives raise or lower the signal
Calls of active or inactive are those of the source. Rule for the calls: active = hit-call score of the fitted dose curve at least 0.9, where 1 is the maximum; inactive = score below 0.9.
value-kind: outcome

Take a look at these entries with their results.
>  <molecule>
OC[C@@H](O)[C@H](O)[C@@H](O)[C@@H](O)CO

>  <recorded-value>
inactive

$$$$
>  <molecule>
O=S(=O)(O)CCCN1CCOCC1

>  <recorded-value>
inactive

$$$$
>  <molecule>
CCC(C)(C)C1CCC(OC)CC1 (centres undefined)

>  <recorded-value>
inactive

$$$$
>  <molecule>
CC(C)(O)C(=O)c1ccc(OCCO)cc1

>  <recorded-value>
inactive

$$$$
>  <molecule>
CC(=N[Si](C)(C)C)O[Si](C)(C)C

>  <recorded-value>
inactive

$$$$

Request: Determine from records and report outcome for CCn1cc(C(=O)O)c(=O)c2ccc(C)nc21
Response: inactive

Request: Dear colleague, please send me the reported outcome for CC1=CC(C)C(C=O)C(C)C1 (centres undefined) (tested in a mixture with another compound) when you can.
Response: inactive

Request: Give outcome for CCCc1ccc(N)cc1
Response: inactive

Request: Return the recorded outcome value; entry: C=C1CC/C=C(\C)CC[C@@H]2[C@@H]1CC2(C)C
Response: inactive

Request: Give the measured outcome for Nc1ccc(O)c(N)c1
Response: inactive

* * *

# protocol: BSK_3C_TissueFactor: BioMAP Diversity Plus: 3C Assay for Tissue Factor Biomarker Activity (AID 2282997)
# test-conditions: BioMAP 3C HUVEC, tissue factor biomarker readout; actives raise or lower the signal
# Description: BSK_3C is a cell-based, multiplexed-readout assay that uses umbilical vein endothelium, a human vascular primary cell, with measurements taken at 24 hours after chemical dosing in a 96-well plate.BSK_3C_TissueFactor is an assay component measured in the BSK_3C assay. It measures Tissue Factor antibody related to regulation of gene expression using ELISA technology.Data from the assay component BSK_3C_TissueFactor was analyzed into 1 assay endpoint. […]
Activity calls are given as the source filed them. How the source made its calls: active means hit-call score of the fitted dose curve at least 0.9, where 1 is the maximum; inactive means score below 0.9.
Permitted responses: active, inactive

Study these solved cases before continuing.
>  <molecule>
CC(C)CCCC(C)(C)O

>  <label-value>
inactive

$$$$
>  <molecule>
C=CC(=O)OCC(CO)(COC(=O)C=C)COC(=O)C=C

>  <label-value>
active

$$$$
>  <molecule>
O=S1(=O)CC(Cl)(Cl)C(Cl)(Cl)C1

>  <label-value>
active

$$$$

Now take the following molecule into account.
Request: # outcome recorded in this test, key = C=C1CC/C=C(\C)CC[C@@H]2[C@@H]1CC2(C)C
Response: active

* * *

# Read-out: Interleukin-8 (IL8), CXCL8 (gene 3576)
# protocol: BSK_SAg_IL8: BioMAP Diversity Plus: SAg Assay for Interleukin-8 (IL8) Biomarker Activity (AID 2283094)
# test-conditions: primary human HUVEC with PBMC; actives raise or lower the signal
Active and inactive are the calls of the source. The calls were made as follows: active = hit-call score of the fitted dose curve at least 0.9, where 1 is the maximum; inactive = score below 0.9.
Give one outcome, nothing more. List: True for active, False for inactive

Request: // return assay outcome for CCOC(=O)C=Cc1ccccc1
Response: False

Request: Would you mind telling me which call this test gave CCn1cc(C(=O)O)c(=O)c2ccc(C)nc21 ?
Response: False

Request: How was COC(=O)c1ccc(C(=O)OC)cc1 classified in this test?
Response: False

Request: Outcome logged for C=C(C)C(=O)OCCC(F)(F)C(F)(F)C(F)(F)C(F)(F)C(F)(F)C(F)(F)C(F)(F)C(F)(F)F in this assay:
Response: False

Request: Outcome? O=S1(=O)CC(Cl)(Cl)C(Cl)(Cl)C1
Response: True

* * *

# Read-out: Lipoprotein lipase (LPL), LPL (gene 4023)
# protocol: LTEA_HepaRG_LPL: Life Technologies and Expression Analysis (LTEA) Assay for Lipoprotein lipase (LPL) using HepaRG (AID 2283515)
# test-conditions: mRNA level, 48 h; actives raise or lower the signal
Activity calls are given as the source filed them. How the source made its calls: active means hit-call score of the fitted dose curve at least 0.9, where 1 is the maximum; inactive means score below 0.9.
One label from this list, please: yes (1) (active), no (0) (inactive)

>  <structure-smiles-string>
CCCCOCCOCCO

>  <label-value>
no (0)

$$$$
>  <structure-smiles-string>
COC(=O)c1ccc(C(=O)OC)cc1

>  <label-value>
no (0)

$$$$
>  <structure-smiles-string>
O=C(c1ccc(OCCN2CCCCC2)cc1)c1c(-c2ccc(O)cc2)sc2cc(O)ccc12

>  <label-value>
yes (1)

$$$$

Request: Identify the outcome logged in this assay for the compound shown: C=C(C)C(N)=O
Response: no (0)

* * *

# measured-target: Estrogen receptor (Homo sapiens) + Estrogen receptor beta (Homo sapiens) (UniProt P03372+Q92731)
# Sequence (P03372 whole entry, looked up): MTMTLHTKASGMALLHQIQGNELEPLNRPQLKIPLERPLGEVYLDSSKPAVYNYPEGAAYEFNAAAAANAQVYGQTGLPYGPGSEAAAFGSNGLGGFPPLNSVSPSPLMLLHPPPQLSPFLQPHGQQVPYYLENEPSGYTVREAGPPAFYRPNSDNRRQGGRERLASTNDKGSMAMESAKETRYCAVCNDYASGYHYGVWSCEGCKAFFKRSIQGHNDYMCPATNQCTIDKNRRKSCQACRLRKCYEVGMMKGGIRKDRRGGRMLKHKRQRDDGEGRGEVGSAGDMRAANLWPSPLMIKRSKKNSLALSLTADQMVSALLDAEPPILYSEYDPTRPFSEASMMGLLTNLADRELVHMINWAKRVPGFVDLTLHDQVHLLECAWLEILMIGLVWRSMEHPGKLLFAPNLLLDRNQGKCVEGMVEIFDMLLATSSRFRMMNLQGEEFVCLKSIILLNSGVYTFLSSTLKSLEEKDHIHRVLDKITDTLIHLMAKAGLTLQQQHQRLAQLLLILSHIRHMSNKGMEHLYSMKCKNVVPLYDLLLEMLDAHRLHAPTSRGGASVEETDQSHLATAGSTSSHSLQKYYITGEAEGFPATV
# Sequence (Q92731 whole entry, looked up): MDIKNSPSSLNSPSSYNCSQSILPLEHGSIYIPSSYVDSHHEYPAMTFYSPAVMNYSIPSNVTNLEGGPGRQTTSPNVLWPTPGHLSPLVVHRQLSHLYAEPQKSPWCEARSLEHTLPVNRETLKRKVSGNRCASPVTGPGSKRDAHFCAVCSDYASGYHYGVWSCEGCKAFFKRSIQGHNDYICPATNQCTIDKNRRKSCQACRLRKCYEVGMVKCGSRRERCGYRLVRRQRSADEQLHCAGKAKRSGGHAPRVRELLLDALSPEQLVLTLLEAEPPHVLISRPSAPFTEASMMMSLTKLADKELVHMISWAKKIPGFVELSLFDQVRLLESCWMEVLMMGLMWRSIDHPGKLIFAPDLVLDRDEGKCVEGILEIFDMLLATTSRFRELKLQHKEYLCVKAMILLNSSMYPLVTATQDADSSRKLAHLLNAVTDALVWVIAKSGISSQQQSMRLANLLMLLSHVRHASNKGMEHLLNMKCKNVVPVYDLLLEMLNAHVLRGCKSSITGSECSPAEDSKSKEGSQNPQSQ
# protocol: OT_ER_ERaERb_0480: Odyssey Thera (OT) 8-hour HEK293T Protein-Complementation Assay for Estrogen Receptor-alpha/-beta Heterodimer (AID 2283352)
Records with an inconclusive call do not appear. Active and inactive are the calls of the source. The calls were made as follows: active = hit-call score of the fitted dose curve at least 0.9, where 1 is the maximum; inconclusive = response in the unintended direction; inactive = score below 0.9.
Return exactly one item of active, inactive

Consider the worked cases shown below.
>  <compound>
c1ccc(Cc2ccccc2)cc1

>  <label-value>
active

$$$$
>  <compound>
CC(=O)Nc1cc(S(=O)(=O)O)cc2cc(S(=O)(=O)O)c(N=Nc3ccccc3)c(O)c12

>  <label-value>
inactive

$$$$
>  <compound>
CCCO

>  <label-value>
inactive

$$$$

Request: Test call for this compound, please: FC(F)(F)c1ccc(Cl)c(Cl)c1
Response: inactive

Request: State the result this test recorded for CCc1cccc(O)c1 .
Response: inactive

Request: # fetch the recorded call for CCCCCCC(C)O (stereo unspecified) here
Response: inactive

Request: Test call for this compound, please: CC12CCC(C1)C(C)(C)C2O (stereo unspecified)
Response: inactive

Sourced from PubChem BioAssay (EPA / NIEHS)
